Ref: patent US10138207B2

target: UniProt P35372
Sequence (P35372 whole entry, species assumed): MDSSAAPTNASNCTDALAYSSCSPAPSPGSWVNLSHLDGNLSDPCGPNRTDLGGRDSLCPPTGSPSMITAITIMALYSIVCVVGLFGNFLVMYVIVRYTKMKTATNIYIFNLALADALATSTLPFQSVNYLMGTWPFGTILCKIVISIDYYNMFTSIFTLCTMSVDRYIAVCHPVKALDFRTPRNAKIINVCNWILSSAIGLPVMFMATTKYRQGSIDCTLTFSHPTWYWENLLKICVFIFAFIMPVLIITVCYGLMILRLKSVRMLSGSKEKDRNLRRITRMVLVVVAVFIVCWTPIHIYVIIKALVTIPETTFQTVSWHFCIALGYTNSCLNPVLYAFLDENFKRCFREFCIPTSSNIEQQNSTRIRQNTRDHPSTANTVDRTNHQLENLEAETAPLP
assay.explanation: μ-opioid receptor [35S]GTPγS functional assay, HEK-293 or CHO cells
study.conditions: read-out: GTPγS μ Emax
Binarize Emax at 60%; below is met, at or above is not met.

>>> df
                                   compound  class_assignment
0  COc1ccc2c(c1)[C@@]1(C)CCN(C)C(C2)[C@]1(O)c1cccc(C(=O)O)c1 [Compound 71]               met
1  CN1CC[C@]2(C)c3cc(O)ccc3CC1C2N(C)c1ccc(CCS(N)(=O)=O)cc1 (stereo in doubt) [Compound 51]           not met
2  CN1CC[C@]2(C)c3cc(O)ccc3CC1C2Nc1ccc(CCS(N)(=O)=O)cc1 (stereo in doubt) [Compound 58]           not met
3  CN1CC[C@]2(C)c3cc(O)ccc3CC1[C@@H]2CC(=O)N1CCC(C(=O)O)CC1 [Compound 72]           not met
4  CN1CC[C@]2(C)c3cc(O)ccc3CC1[C@@H]2N1Cc2ccccc2NC1=O [Compound 91]           not met
5  CN1CC[C@]2(C)c3cc(O)ccc3C[C@@H]1[C@H]2COc1cccc(C(=O)O)c1 [Compound 41]               met
6  CN1CC[C@]2(C)c3cc(O)ccc3CC1[C@H]2COc1ccc(C(N)=O)cc1 [Compound 44]           not met
7  COc1ccc2c(c1)[C@@]1(C)CCN(C)C(C2)[C@]1(O)c1cccc(-c2nnn[nH]2)c1 [Compound 66]               met
